- Procedure Summary: in vitro
- Assay type: cell-based
- Cond: human
Value Kind: viability at 48 h, 1 µM (%)
Express your answer in %, writing the number without its unit.

# viability at 48 h, 1 µM (compound: COc1cccc2c1C(=O)c1c(O)c3c(c(O)c1C2=O)C[C@@](O)(C(=O)CO)C[C@@H]3O[C@H]1C[C@H](N)[C@H](O)[C@H](C)O1 ) is 16.6

----------
- Test system: MDR K. pneumoniae clinical isolates
- Procedure Summary: Resistance phenotype (MICs of antibiotics) of MDR clinical isolates
- Assay type: cell-based, Klebsiella pneumoniae
- Cond: Klebsiella pneumoniae, 116381; read-out: MIC
Value Kind: MIC (µg/mL)
Give your result in µg/mL as a bare value.

Examples from the recorded data:
Looking up C[C@H]1c2cccc(O)c2C(=O)C2=C(O)[C@]3(O)C(=O)C(C(N)=O)=C(O)[C@@H](N(C)C)[C@@H]3[C@@H](O)[C@@H]21 , I found its MIC recorded as 1

// MIC value for NC[C@H]1O[C@H](O[C@H]2[C@H](O)[C@@H](O[C@H]3O[C@H](CO)[C@@H](O)[C@H](N)[C@H]3O)[C@H](N)C[C@@H]2N)[C@H](N)C[C@@H]1O : 4

Then there is this compound:
Short answer for CN(C)c1cc(CNCC(C)(C)C)c(O)c2c1C[C@H]1C[C@H]3[C@H](N(C)C)C(O)=C(C(N)=O)C(=O)[C@@]3(O)C(O)=C1C2=O : MIC was 4

----------
- System: MDR P. aeruginosa clinical isolates
- Procedure Summary: Resistance phenotype (MICs of antibiotics) of MDR clinical isolates
- Format: cell-based, Pseudomonas aeruginosa
- Cond: Pseudomonas aeruginosa, 264-104354; read-out: MIC
Let's look at some compounds and their measured MIC.

Looking up CNC(C)C1CCC(N)C(OC2C(N)CC(N)C(OC3OCC(C)(O)C(NC)C3O)C2O)O1 (stereo not drawn) , I see its MIC listed as > 32 µg/mL

Quick note, MIC for C[C@@H](O)[C@H]1C(=O)N2C(C(=O)O)=C(S[C@@H]3CN[C@H](C(=O)Nc4cccc(C(=O)O)c4)C3)[C@H](C)[C@H]12 landed at > 32 µg/mL

# MIC (compound: CO/N=C(\C(=O)N[C@@H]1C(=O)N2C(C(=O)O)=C(CSc3nc(=O)c(=O)[nH]n3C)CS[C@H]12)c1csc(N)n1 ) is > 64 µg/mL

----------
- Test system: MDR A. baumannii clinical isolates
- Procedure Summary: Resistance phenotype (MICs of antibiotics) of MDR clinical isolates
- Type: cell-based, Acinetobacter baumannii
- Cond: Acinetobacter baumannii, AB031; read-out: MIC
Value Kind: MIC (mg/L)
A number alone suffices; assume mg/L.

Result for CN(C)c1cc(NC(=O)CNC(C)(C)C)c(O)c2c1C[C@H]1C[C@H]3[C@H](N(C)C)C(O)=C(C(N)=O)C(=O)[C@@]3(O)C(O)=C1C2=O [TGC, tigecycline] , tested on MDR A. baumannii clinical isolates, MIC: 8

// MIC (MDR A. baumannii clinical isolates) for C[C@@H](O)[C@H]1C(=O)N2C(C(=O)O)=C(S[C@@H]3CN[C@H](C(=O)N(C)C)C3)[C@H](C)[C@H]12 [MER, meropenem] = 1

MIC of COc1c(N2C[C@@H]3CCCN[C@@H]3C2)c(F)cc2c(=O)c(C(=O)O)cn(C3CC3)c12 [Moxifloxacin] , assay on MDR A. baumannii clinical isolates, is 0.12

CN(C)c1cc(CNCC(C)(C)C)c(O)c2c1C[C@H]1C[C@H]3[C@H](N(C)C)C(O)=C(C(N)=O)C(=O)[C@@]3(O)C(O)=C1C2=O [OMC, omadacycline] on MDR A. baumannii clinical isolates gives MIC = 2

More entries:
The measured MIC that C[C@H]1COc2c(N3CCN(C)CC3)c(F)cc3c(=O)c(C(=O)O)cn1c23 [Levofloxacin] showed for MDR A. baumannii clinical isolates is 0.25
